assay: DUSP6 inhibitors restoring Erk phosphorylation by chemical complementation, primary imaging in DUSP6-transfected HeLa (AID 609); conditions: HeLa MKP-3 transfected, phospho-Erk imaging KS statistic; measured here: nuclear pErk red intensity z-score; at 10 µM; stronger effect = higher value; cells stimulated with TPA for 15 min
Class boundaries, taken from values of z-score, are as follows: 1 (below -0.2), 2 (-0.2 to below 0.7), 3 (0.7 or more)

Some solved cases for reference:
Cc1nc2ccccn2c(=O)c1CCN1CCC(C(=O)c2ccc(F)cc2)CC1 ... 1
C[C@H](CCC(=O)O)[C@H]1CC[C@H]2[C@@H]3C(=O)C[C@@H]4CC(=O)CC[C@]4(C)[C@H]3CC(=O)[C@]12C ... 1
CC(C)CC(=O)Nc1ncnc2c1C(=O)CC(C)(C)C2 ... 2
CCCOC(=O)CSC1=C(C#N)C(c2ccccc2OC)C(C#N)C(=O)N1 (stereo unspecified) ... 2
CCCCn1c2nc3ccccc3nc2c2c(=O)n(CC(C)C)cnc21 ... 1
CCOC(=O)c1cc2c(=O)n3ccccc3nc2n(Cc2ccccc2Cl)c1=N ... 3

[ask] Dear colleague, I would appreciate it if you could identify the bin for Cc1nnc2n(Cc3ccccc3)c(=O)c3c4c(sc3n12)CN(Cc1ccccc1)CC4 and reply at your convenience.
[reply] 2

[ask] Continue with Cc1nc2ccccc2cc1O
[reply] 3

[ask] Please answer likewise for COc1ccc(C2=Nn3c(nnc3-c3ccccn3)SC2)cc1OC
[reply] 2

[ask] Likewise for Cc1nc(Nc2ncc3c(n2)CC(C)(C)CC3=O)nc2ccccc12 ?
[reply] 3

---

Reported z-score values follow for various compounds
assay: DUSP6 inhibitors restoring Erk phosphorylation by chemical complementation, primary imaging in DUSP6-transfected HeLa (AID 609); settings: HeLa MKP-3 transfected, phospho-Erk imaging KS statistic; measured here: nuclear pErk red intensity z-score; at 10 µM; stronger effect = higher value; cells stimulated with TPA for 15 min
Answer as a number with no unit attached.

[ask] Any idea what its z-score is? The compound is COc1ccccc1-c1nn2c(-c3ccco3)nnc2s1
[reply] -0.198

[ask] Follow-up entry: Cn1c([N+](=O)[O-])cnc1COC(N)=O
[reply] 1.01

[ask] Ok, now Cc1ccc(OCC(=O)NCC(=O)n2nc(C)cc2C)cc1
[reply] 1.92

[ask] Now consider CCCCOC(=O)C(C)c1c(C)[nH]c(=S)[nH]c1=O (configuration not stated) and answer again.
[reply] -0.0829

[ask] What about this compound? COc1cc(-c2nn3c(-c4ccco4)nnc3s2)cc(OC)c1OC
[reply] 0.841

[ask] Also N#Cc1ccc(-c2cccnc2)nc1SCC(=O)Nc1sc2c(c1C#N)CCC2 , if possible.
[reply] 0.527

[ask] How about this compound: CNCCCC1c2ccccc2C=Cc2ccccc21
[reply] 3.14

[ask] Also need Cc1ccnc(N2CCN(c3cc(C)c(C#N)c4nc5ccccc5n34)CC2)c1 , thanks.
[reply] -0.157

[ask] Would you mind doing CC(=O)C1=C(NC(=O)c2ccccc2F)C[C@@H]2[C@H]1C2(C)C as well?
[reply] 0.959

[ask] Also, CCCCOC(=O)CSC1=C(C#N)C(c2ccccc2OC)C(C#N)C(=O)N1 (configuration not stated) please.
[reply] 1.09

[ask] Now give it for Cc1cccn2c(=O)c3cc(C#N)c(=N)n(Cc4ccncc4)c3nc12 too.
[reply] 0.303

[ask] Next up: COc1ccccc1C(=O)NC(=Nc1nc2ccccc2o1)NC(=O)c1ccccc1OC
[reply] 0.38

[ask] Record: Cc1cc(OCC(=O)Nc2ccc3oc(-c4ccncc4)nc3c2)ccc1Cl
[reply] -0.15

[ask] And the next one, Cc1[nH]c2ccc(F)cc2c(=O)c1SC(F)(F)C(F)C(F)(F)F (configuration not stated) ?
[reply] -0.414

[ask] Proceed to CC(C)COc1nc2ccccc2nc1C(C#N)C(=O)NC1CCCCC1 (configuration not stated)
[reply] 0.00363

[ask] Request: c1ccc(Cc2nn[nH]n2)cc1
[reply] 1.02

[ask] Record: COc1ccc(C(=O)Cn2c(N3CCCCC3)nc3c2c(=O)n(C)c(=O)n3C)cc1OC
[reply] 0.238

[ask] Param item: COc1cccc(NC(=O)CSC2=C(C#N)C(c3ccco3)C3=C(CCCC3=O)N2)c1 (configuration not stated)
[reply] 2.07

[ask] Repeat for the following compound: CC(=O)OCC(=O)[C@@]1(OC(C)=O)[C@@H](C)C[C@H]2[C@@H]3C[C@H](F)C4=CC(=O)C=C[C@]4(C)[C@@]3(F)[C@@H](O)C[C@@]21C
[reply] -1.55

[ask] Input CC1(C)Nc2ccc(O)cc2-c2c1ssc2=S
[reply] -1.32

[ask] Then COc1ccc(/C(O)=C2\C(=O)C(=O)N(c3cc(C)on3)C2c2ccccc2OC)cc1 (configuration not stated) ?
[reply] -0.473

[ask] Another compound: NC(CO)C(=O)NNCc1ccc(O)c(O)c1O (configuration not stated)
[reply] -0.65

Data provenance is PubChem BioAssay.
